System Name: DRB1*0901 (Homo sapiens, UniProt P01903+P01911, A100R/A103E/D57H/D86V/F55Y/F60I/F76Y/I96F/K127E/L162R/M171V/P40D/Q125H/Q99R/R33Q/R42F/S133A/S66N/T210M/V115G/W38K/Y107V/Y59G/Y89S)
Assay: biochemical
Format: binding
Recorded Conditions: competitive inhibition of radiolabeled standard peptide; '-' distinct from ND; read-out: Binding Affinity (nM) DRB1*0901
Quantity Name: IC50 (nM)
Provide the reading as a plain figure in nM.

See these solved cases before continuing.
Item Smiles	IC50 (nM)
CC[C@H](C)[C@H](NC(=O)[C@@H]1CCCN1C(=O)[C@H](CC(C)C)NC(=O)CNC(=O)[C@@H](N)CCCCN)C(=O)N[C@@H](CCCNC(=N)N)C(=O)N[C@@H](Cc1ccc(O)cc1)C(=O)N[C@@H](CCC(N)=O)C(=O)N[C@H](C(=O)N[C@H](C(=O)N[C@@H](C)C(=O)N[C@H](C(=O)N[C@@H](CCCCN)C(=O)N[C@@H](CO)C(=O)N[C@@H](CCC(=O)O)C(=O)O)[C@@H](C)O)[C@@H](C)O)[C@@H](C)O	928
CSCC[C@H](NC(=O)[C@H](CC(C)C)NC(=O)[C@H](CCCNC(=N)N)NC(=O)[C@H](Cc1c[nH]cn1)NC(=O)[C@H](CC(=O)O)NC(=O)[C@H](CS)NC(=O)[C@H](CC(C)C)NC(=O)[C@H](CCC(N)=O)NC(=O)[C@@H](NC(=O)[C@H](Cc1ccc(O)cc1)NC(=O)[C@@H](NC(=O)[C@@H](N)CCC(=O)O)C(C)C)[C@@H](C)O)C(=O)N[C@@H](CO)C(=O)N[C@@H](C)C(=O)N[C@@H](C)C(=O)O	608

Query: Give recorded IC50. "CC[C@H](C)[C@H](NC(=O)[C@H](CCCCN)NC(=O)CNC(=O)[C@H](CCC(=O)O)NC(=O)[C@@H](NC(=O)[C@H](CS)NC(=O)[C@H](CC(C)C)NC(=O)[C@H](CCCCN)NC(=O)[C@H](CCCNC(=N)N)NC(=O)[C@H](CC(C)C)NC(=O)[C@@H](NC(=O)[C@H](C)NC(=O)[C@H](CC(C)C)NC(=O)[C@H](CCC(N)=O)NC(=O)[C@@H](N)[C@@H](C)O)[C@@H](C)O)[C@@H](C)CC)C(=O)O"
Result: 2340
